Each recorded value in this set is attributed to patent US20220111022A1.

peptide exchange yield values by entry
Biological target: T1, HLA-A*02:01 (human)
T1 construct: MHC monomers first loaded with a UV-sensitive peptide (not identified) that is cleaved and exchanged for the test peptide; captured on streptavidin-coated plates and detected with anti-β2m; also called peptide-receptive MHC molecules; MHC class I
Assay: UV-ligand exchange, anti-b2m ELISA; peptide exchange yield grade

>  <Binder>
FLGPIVDL

>  <peptide exchange yield>
≥ 75%

$$$$
>  <Binder>
YLDGTFRLL

>  <peptide exchange yield>
50 to 75%

$$$$
>  <Binder>
SLLRDFTLV

>  <peptide exchange yield>
≥ 75%

$$$$
>  <Binder>
RLLEGDFSL

>  <peptide exchange yield>
≥ 75%

$$$$
>  <Binder>
VLKDGTLVI

>  <peptide exchange yield>
20 to 50%

$$$$
>  <Binder>
ALDSSLQLL

>  <peptide exchange yield>
≥ 75%

$$$$
>  <Binder>
ILDSTTIEI

>  <peptide exchange yield>
≥ 75%

$$$$
>  <Binder>
AVDGTDARL

>  <peptide exchange yield>
50 to 75%

$$$$
>  <Binder>
NLLDHSSMFL

>  <peptide exchange yield>
≥ 75%

$$$$
>  <Binder>
FLDTSTADV

>  <peptide exchange yield>
≥ 75%

$$$$
>  <Binder>
ALDDYTITF

>  <peptide exchange yield>
≥ 75%

$$$$
>  <Binder>
SLFAYPLPDV

>  <peptide exchange yield>
≥ 75%

$$$$
>  <Binder>
VLDGTEVNL

>  <peptide exchange yield>
≥ 75%

$$$$
>  <Binder>
YLWWVNDQSL

>  <peptide exchange yield>
≥ 75%

$$$$
>  <Binder>
QLLGRDISL

>  <peptide exchange yield>
≥ 75%

$$$$
>  <Binder>
VLMDGTLKQV

>  <peptide exchange yield>
≥ 75%

$$$$
>  <Binder>
FVDEHTIDI

>  <peptide exchange yield>
50 to 75%

$$$$
>  <Binder>
KLHDTSFCL

>  <peptide exchange yield>
≥ 75%

$$$$
>  <Binder>
KLLDGSQRV

>  <peptide exchange yield>
50 to 75%

$$$$
>  <Binder>
SLFDDSFSL

>  <peptide exchange yield>
≥ 75%

$$$$
>  <Binder>
GLDRTQLVNV

>  <peptide exchange yield>
≥ 75%

$$$$
>  <Binder>
KLEERVYDV

>  <peptide exchange yield>
≥ 75%

$$$$
>  <Binder>
YVWDRTELL

>  <peptide exchange yield>
≥ 75%

$$$$
